- studySystem: human M1 receptor (Homo sapiens, UniProt P11229)
- Construct: expressed in transfected cells
- Sequence (P11229 1-460): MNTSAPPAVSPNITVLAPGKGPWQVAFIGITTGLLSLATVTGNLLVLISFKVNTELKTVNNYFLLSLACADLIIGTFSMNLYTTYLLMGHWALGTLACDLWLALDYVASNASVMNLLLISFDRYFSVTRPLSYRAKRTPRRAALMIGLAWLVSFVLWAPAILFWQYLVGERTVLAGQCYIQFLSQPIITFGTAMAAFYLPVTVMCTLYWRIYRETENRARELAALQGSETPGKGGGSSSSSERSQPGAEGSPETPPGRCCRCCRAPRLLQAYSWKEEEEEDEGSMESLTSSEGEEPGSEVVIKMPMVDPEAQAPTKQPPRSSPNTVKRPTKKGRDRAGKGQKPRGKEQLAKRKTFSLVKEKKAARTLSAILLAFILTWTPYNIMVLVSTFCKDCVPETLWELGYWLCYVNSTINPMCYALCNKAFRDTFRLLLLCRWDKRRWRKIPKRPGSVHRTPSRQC
- measurementNotes: M1-receptor functional agonist assays (pERK1/2 and calcium mobilisation) for hits and SAR
- Format: cell-based
propertyLabel: EC50

Quick note, EC50 for `CCOC(=O)N1CCC[C@H](N2CCC(C(=O)NC3(C)CCC3)CC2)CC1` landed at 32 nM

----------
- measurementNotes: First-time-in-human single ascending dose safety
- Assay type: in vivo
- experimentalParameters: plasma, oral, 175 mg; human SAD; read-out: Cmax at which cholinergic side effects were recorded
propertyLabel: Cmax (ng/mL)
# number only, unit ng/mL dropped from output

Looking up `CCOC(=O)N1CCC[C@H](N2CCC(C(=O)NC3(C)CCC3)CC2)CC1` , I see its Cmax listed as 242

----------
- studySystem: UniProt:P08172
- measurementNotes: M2-receptor functional agonist assay
- Type: cell-based
- Set-up: expressed in transfected cells
propertyLabel: EC50

Note to self: EC50 recorded for `CCOC(=O)N1CCC[C@H](N2CCC(C(=O)NC3(C)CCC3)CC2)CC1` was > 20 µM

----------
propertyLabel: Ki (µM)
Value expressed in µM; do not type the unit.

Short answer on M2-receptor (Homo sapiens) for `CCOC(=O)N1CCC[C@H](N2CCC(C(=O)NC3(C)CCC3)CC2)CC1` , Ki: 3.16
